Provide the reported cAMP release, % activity with respect to control, at 1 nM of each item.
Tested On: human GLP-1 receptor (human, UniProt P43220 24-463)
Assay Comment: cell-based or functional assay
Where no end group is shown, it is not given here. [ ]: non-standard residue; d: D form. αMePhe(2,6-F2) = C[C@](N)(Cc1c(F)cccc1F)C(=O)O; αMeBip(OMe) = alpha-methylated Bip(OMe); hhPhe = N[C@@H](CCCc1ccccc1)C(=O)O; αMeP = C[C@@]1(C(=O)O)CCCN1; αMeS = C[C@](N)(CO)C(=O)O

Ask: // cAMP release, % activity with respect to control, at 1 nM lookup, key: VVHAQGT[αMePhe(2,6-F2)]TSD[αMeBip(OMe)][hhPhe]-NH2 [Seq. ID. No. 222]
Result: 38 % of control

Ask: Which cAMP release, % activity with respect to control, at 1 nM value is on record for VH[αMeP]EGTFTSD[αMeBip(OMe)][hhPhe] (not fully specified (C-terminus); printed as VH-(αMe-Pro)-EGTFTSD-(αMe-Bip(OMe))-(APPA)) [Seq. ID. No. 14] ?
Result: 55 % of control

Ask: Which measured cAMP release, % activity with respect to control, at 1 nM value corresponds to VHSQGT[αMePhe(2,6-F2)]T[αMeS]D[αMeBip(OMe)][hhPhe]-NH2 [Seq. ID. No. 49] ?
Result: 38 % of control

Data provenance is patent US20120264685A1.
